Molecular target: Carboxy-terminal domain RNA polymerase II polypeptide A small phosphatase 1 (Homo sapiens)
Sequence (Q9GZU7 whole entry): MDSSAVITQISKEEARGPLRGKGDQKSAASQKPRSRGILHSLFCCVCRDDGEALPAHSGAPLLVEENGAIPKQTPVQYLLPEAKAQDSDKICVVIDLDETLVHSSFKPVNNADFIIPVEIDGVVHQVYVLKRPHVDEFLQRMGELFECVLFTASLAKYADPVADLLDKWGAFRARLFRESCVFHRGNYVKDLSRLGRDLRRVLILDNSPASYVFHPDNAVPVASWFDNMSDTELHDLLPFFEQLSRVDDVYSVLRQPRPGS
Assay: inhibitors of CTDSP1, concentration-response testing, biochemical assay, absorbance-based, actives from ultra-high-throughput screening (AID 540297)
Type: functional
Active and inactive are the calls of the source. Cut-off read from the data, not from the text of the source: actives have a measured IC50 and inactives only a lower limit.
Outcome field: choose from 1.0 for active, 0.0 for inactive

Worked examples follow.
smiles-str: CCOC(=O)c1cc(-c2ccc(OC)cc2)nn1-c1ccccc1C(=O)O
discrete-label: 1.0
--
smiles-str: COc1cccc(Nc2nn3c(=O)c4ccccc4nc3s2)c1
discrete-label: 1.0
--
smiles-str: COc1cc(/C=C/c2cccc[n+]2C)ccc1OCC(=O)Nc1cccc(Cl)c1
discrete-label: 1.0
--
smiles-str: Cc1cccn2c(=O)c3cc(C#N)/c(=N\C(=O)c4ccco4)n(Cc4ccco4)c3nc12
discrete-label: 0.0

Turning now to a further compound:
Please state the recorded outcome for this compound: CC(=O)c1ccccc1NS(=O)(=O)c1cccc2nsnc12
1.0
